Measured Protein Intensity, % (SODC) accompanies every entry in the list below.
- Tested on: Superoxide dismutase [Cu-Zn] (SODC_HUMAN)
- test-protocol: LC–MS proteome analysis, SODC
- Format: cell-based, Homo sapiens
- study-conditions: PC3, 24 h, IC50 concentration, % of control
result-type: Protein Intensity, % (SODC) (%)

O=[N+]([O-])c1cc([N+]2=C(Nc3ccc(Br)cc3)[S][Cu-2]23[S]C(Nc2ccc(Br)cc2)=[N+]3c2ccc(Cl)c([N+](=O)[O-])c2)ccc1Cl ... 30.9
O=[N+]([O-])c1cc([N+]2=C(Nc3ccccc3F)[S][Cu-2]23[S]C(Nc2ccccc2F)=[N+]3c2ccc(Cl)c([N+](=O)[O-])c2)ccc1Cl ... 15.4
O=[N+]([O-])c1cc([N+]2=C(Nc3ccc(I)cc3)[S][Cu-2]23[S]C(Nc2ccc(I)cc2)=[N+]3c2ccc(Cl)c([N+](=O)[O-])c2)ccc1Cl ... 33.0
O=[N+]([O-])c1cc([N+]2=C(Nc3ccccc3Br)[S][Cu-2]23[S]C(Nc2ccccc2Br)=[N+]3c2ccc(Cl)c([N+](=O)[O-])c2)ccc1Cl ... 58.5

---

- Tested on: S. epidermidis 423
- test-protocol: MIC, hospital MRSE strain
- Format: cell-based, Staphylococcus epidermidis
- study-conditions: hospital MRSE S. epidermidis 423
result-type: MIC (µg/mL)

O=[N+]([O-])c1cc(NC2=[N+](c3ccc(Cl)c([N+](=O)[O-])c3)[Cu-2]3([S]2)[S]C(Nc2ccc(Cl)c([N+](=O)[O-])c2)=[N+]3c2ccc(Cl)c([N+](=O)[O-])c2)ccc1Cl ... 64
O=[N+]([O-])c1cc([N+]2=C(Nc3cccc(Br)c3)[S][Cu-2]23[S]C(Nc2cccc(Br)c2)=[N+]3c2ccc(Cl)c([N+](=O)[O-])c2)ccc1Cl ... 8
O=[N+]([O-])c1cc([N+]2=C(Nc3ccccc3F)[S][Cu-2]23[S]C(Nc2ccccc2F)=[N+]3c2ccc(Cl)c([N+](=O)[O-])c2)ccc1Cl ... 8
O=[N+]([O-])c1cc([N+]2=C(Nc3ccc(Br)cc3)[S][Cu-2]23[S]C(Nc2ccc(Br)cc2)=[N+]3c2ccc(Cl)c([N+](=O)[O-])c2)ccc1Cl ... 4
O=[N+]([O-])c1cc([N+]2=C(Nc3ccc(F)c(Cl)c3)[S][Cu-2]23[S]C(Nc2ccc(F)c(Cl)c2)=[N+]3c2ccc(Cl)c([N+](=O)[O-])c2)ccc1Cl ... 4

---

- Test system: Glutathione S-transferase omega-1 (GSTO1_HUMAN)
- test-protocol: LC–MS proteome analysis, GSTO1
- Format: cell-based, Homo sapiens
- study-conditions: SW480, 24 h, IC50 concentration, % of control
result-type: Protein Intensity, % (GSTO1) (%)

O=[N+]([O-])c1cc([N+]2=C(Nc3ccc(I)cc3)[S][Cu-2]23[S]C(Nc2ccc(I)cc2)=[N+]3c2ccc(Cl)c([N+](=O)[O-])c2)ccc1Cl [Compound 8] ... 52.4
O=[N+]([O-])c1cc([N+]2=C(Nc3ccccc3F)[S][Cu-2]23[S]C(Nc2ccccc2F)=[N+]3c2ccc(Cl)c([N+](=O)[O-])c2)ccc1Cl [Compound 7] ... 45.1
O=[N+]([O-])c1cc([N+]2=C(Nc3ccccc3Br)[S][Cu-2]23[S]C(Nc2ccccc2Br)=[N+]3c2ccc(Cl)c([N+](=O)[O-])c2)ccc1Cl [Compound 1] ... 70.9
O=[N+]([O-])c1cc([N+]2=C(Nc3ccc(Br)cc3)[S][Cu-2]23[S]C(Nc2ccc(Br)cc2)=[N+]3c2ccc(Cl)c([N+](=O)[O-])c2)ccc1Cl [Compound 3] ... 66.0

---

// values below are reported MIC
- System: E. coli ATCC 25922
- test-protocol: MIC, twofold serial microdilution
- Type: cell-based, Escherichia coli
- study-conditions: E. coli ATCC 25922, 18 h, 35 °C
result-type: MIC (mg/L)

O=[N+]([O-])c1cc([N+]2=C(Nc3ccc(I)cc3)[S][Cu-2]23[S]C(Nc2ccc(I)cc2)=[N+]3c2ccc(Cl)c([N+](=O)[O-])c2)ccc1Cl ... 128
O=[N+]([O-])c1cc(NC2=[N+](c3ccc(Cl)c([N+](=O)[O-])c3)[Cu-2]3([S]2)[S]C(Nc2ccc(Cl)c([N+](=O)[O-])c2)=[N+]3c2ccc(Cl)c([N+](=O)[O-])c2)ccc1Cl ... 128

---

Recorded MIC by entry
- Tested on: E. coli NCTC 10538
- test-protocol: MIC, twofold serial microdilution
- Type: cell-based, Escherichia coli
- study-conditions: E. coli NCTC 10538, 18 h, 35 °C
result-type: MIC (µg/mL)

O=[N+]([O-])c1cc([N+]2=C(Nc3ccccc3Br)[S][Cu-2]23[S]C(Nc2ccccc2Br)=[N+]3c2ccc(Cl)c([N+](=O)[O-])c2)ccc1Cl ... 128
O=[N+]([O-])c1cc([N+]2=C(Nc3ccccc3F)[S][Cu-2]23[S]C(Nc2ccccc2F)=[N+]3c2ccc(Cl)c([N+](=O)[O-])c2)ccc1Cl ... 128
O=[N+]([O-])c1cc([N+]2=C(Nc3ccc(F)c(Cl)c3)[S][Cu-2]23[S]C(Nc2ccc(F)c(Cl)c2)=[N+]3c2ccc(Cl)c([N+](=O)[O-])c2)ccc1Cl ... 128

---

- Tested on: Peroxiredoxin-1 (PRDX1_HUMAN)
- test-protocol: LC–MS proteome analysis, PRDX1
- Assay type: cell-based, Homo sapiens
- study-conditions: SW620, 24 h, IC50 concentration, % of control
result-type: Protein Intensity, % (PRDX1) (%)

O=[N+]([O-])c1cc([N+]2=C(Nc3ccccc3F)[S][Cu-2]23[S]C(Nc2ccccc2F)=[N+]3c2ccc(Cl)c([N+](=O)[O-])c2)ccc1Cl ... 83.2
O=[N+]([O-])c1cc([N+]2=C(Nc3ccccc3Br)[S][Cu-2]23[S]C(Nc2ccccc2Br)=[N+]3c2ccc(Cl)c([N+](=O)[O-])c2)ccc1Cl ... 96.1
O=[N+]([O-])c1cc([N+]2=C(Nc3ccc(Br)cc3)[S][Cu-2]23[S]C(Nc2ccc(Br)cc2)=[N+]3c2ccc(Cl)c([N+](=O)[O-])c2)ccc1Cl ... 89.0
O=[N+]([O-])c1cc([N+]2=C(Nc3ccc(I)cc3)[S][Cu-2]23[S]C(Nc2ccc(I)cc2)=[N+]3c2ccc(Cl)c([N+](=O)[O-])c2)ccc1Cl ... 93.5

---

- System: S. aureus 498
- test-protocol: MIC, hospital MRSA strain
- Type: cell-based, Staphylococcus aureus
- study-conditions: hospital MRSA S. aureus 498
Examples of compounds with documented MIC follow.
result-type: MIC (µg/mL)

O=[N+]([O-])c1cc([N+]2=C(Nc3ccc(I)cc3)[S][Cu-2]23[S]C(Nc2ccc(I)cc2)=[N+]3c2ccc(Cl)c([N+](=O)[O-])c2)ccc1Cl [Compound 8] ... 8
O=[N+]([O-])c1cc([N+]2=C(Nc3ccccc3F)[S][Cu-2]23[S]C(Nc2ccccc2F)=[N+]3c2ccc(Cl)c([N+](=O)[O-])c2)ccc1Cl [Compound 7] ... 4
O=[N+]([O-])c1cc([N+]2=C(Nc3ccc(Br)cc3)[S][Cu-2]23[S]C(Nc2ccc(Br)cc2)=[N+]3c2ccc(Cl)c([N+](=O)[O-])c2)ccc1Cl [Compound 3] ... 4
O=[N+]([O-])c1cc([N+]2=C(Nc3ccc(Cl)c(Cl)c3)[S][Cu-2]23[S]C(Nc2ccc(Cl)c(Cl)c2)=[N+]3c2ccc(Cl)c([N+](=O)[O-])c2)ccc1Cl [Compound 5] ... 16
O=[N+]([O-])c1cc([N+]2=C(Nc3cccc(Br)c3)[S][Cu-2]23[S]C(Nc2cccc(Br)c2)=[N+]3c2ccc(Cl)c([N+](=O)[O-])c2)ccc1Cl [Compound 2] ... 8

---

- Test system: S. epidermidis 436
- test-protocol: MIC, hospital MRSE strain
- Format: cell-based, Staphylococcus epidermidis
- study-conditions: hospital MRSE S. epidermidis 436
result-type: MIC (µg/mL)

O=[N+]([O-])c1cc([N+]2=C(Nc3ccccc3F)[S][Cu-2]23[S]C(Nc2ccccc2F)=[N+]3c2ccc(Cl)c([N+](=O)[O-])c2)ccc1Cl [Compound 7] ... 8
O=[N+]([O-])c1cc([N+]2=C(Nc3ccc(F)c(Cl)c3)[S][Cu-2]23[S]C(Nc2ccc(F)c(Cl)c2)=[N+]3c2ccc(Cl)c([N+](=O)[O-])c2)ccc1Cl [Compound 4] ... 8
O=[N+]([O-])c1cc([N+]2=C(Nc3ccc(Br)cc3)[S][Cu-2]23[S]C(Nc2ccc(Br)cc2)=[N+]3c2ccc(Cl)c([N+](=O)[O-])c2)ccc1Cl [Compound 3] ... 4
O=[N+]([O-])c1cc([N+]2=C(Nc3ccc(Cl)c(Cl)c3)[S][Cu-2]23[S]C(Nc2ccc(Cl)c(Cl)c2)=[N+]3c2ccc(Cl)c([N+](=O)[O-])c2)ccc1Cl [Compound 5] ... 32
O=[N+]([O-])c1cc([N+]2=C(Nc3cccc(Br)c3)[S][Cu-2]23[S]C(Nc2cccc(Br)c2)=[N+]3c2ccc(Cl)c([N+](=O)[O-])c2)ccc1Cl [Compound 2] ... 8

Reference for the values: paper PMC8584173
